For each record, write down the corresponding MIC.
System: Klebsiella pneumoniae
Assay: Inhibition of beta lactamase KPC-2 in Klebsiella pneumoniae 75 assessed as potentiation of meropenem-induced antibacterial activity by measuring meropenem MIC at 16 mg/L incubated for 18 hrs by broth dilution method (reference value: […] mg/L)
The answer is to be given in µg/mL; state only the numeric part.

Please fill in: MIC reported for C[Si]1(C)OB(O)c2c(F)c(F)c(F)c(F)c21 = 32

Please fill in: MIC reported for C[Si]1(C)OB(O)c2ccc(F)c(F)c21 = 32

Please fill in: MIC reported for C[Si]1(C)OB(O)c2cc3c(c(F)c21)COB3O = 32

Please fill in: MIC reported for OB(O)c1ccccc1 = 16

Please fill in: MIC reported for C[Si]1(C)OB(O)c2c(F)c3c(c(F)c21)B(O)OC3 = 32

Please fill in: MIC reported for C[Si]1(C)OB(O)c2ccc(B(O)O)cc21 = 16

====

System: Proteus mirabilis
Experiment: Antibacterial activity against Proteus mirabilis ATCC 12453 assessed as fold reduction of MIC in presence of efflux pump inhibitor PAbetaN incubated for 18 hrs by broth microdilution method
Type: functional
attribute-measured: fold change (FC)

// assay Proteus mirabilis, entry C[Si]1(C)OB(O)c2cc(C=O)cc(F)c21 , fold change (FC) value = 4

// assay Proteus mirabilis, entry C[Si]1(C)OB(O)c2c(F)c3c(c(F)c21)B(O)OC3 , fold change (FC) value = 4

// assay Proteus mirabilis, entry C[Si]1(C)OB(O)c2ccc(Cl)cc21 , fold change (FC) value = 4

// assay Proteus mirabilis, entry C[Si]1(C)OB(O)c2cccc(B(O)O)c21 , fold change (FC) value = 0

// assay Proteus mirabilis, entry C[Si]1(C)OB(O)c2c(F)c(F)c(F)c(F)c21 , fold change (FC) value = 2

// assay Proteus mirabilis, entry C[Si]1(C)OB(O)c2cccc(F)c21 , fold change (FC) value = 2

// assay Proteus mirabilis, entry C[Si]1(C)OB(O)c2cc(B(O)O)cc(F)c21 , fold change (FC) value = 4

// assay Proteus mirabilis, entry C[Si]1(C)OB(O)c2ccc(F)c(F)c21 , fold change (FC) value = 2

// assay Proteus mirabilis, entry C[Si]1(C)OB(O)c2ccc(Cl)c(Cl)c21 , fold change (FC) value = 4

// assay Proteus mirabilis, entry C[Si]1(C)OB(O)c2c(C=O)cc(F)c(F)c21 , fold change (FC) value = 2

// assay Proteus mirabilis, entry C[Si]1(C)OB(O)c2cc(F)c(F)cc21 , fold change (FC) value = 2

// assay Proteus mirabilis, entry C[Si]1(C)OB(O)c2cc(F)c(C=O)c(F)c21 , fold change (FC) value = 2

====

For each record, write down the corresponding inhibition zone (IZ).
Test system: Klebsiella pneumoniae 700603
Assay: Inhibition of extended-spectrum beta lactamase in Klebsiella pneumoniae ATCC 700603 assessed as potentiation of ceftazidime-induced antibacterial activity by measuring diameter of zone inhibition at 0.3 mg incubated for 18 hrs in presence of 10 ug ceftazidime by CLSI disc diffusion method (Rvb=13 mm)
The answer is to be given in mm; state only the numeric part.

Please fill in: inhibition zone (IZ) reported for C[Si]1(C)OB(O)c2ccc(F)c(F)c21 = 13

Please fill in: inhibition zone (IZ) reported for C[Si]1(C)OB(O)c2c(F)c(F)c(F)c(F)c21 = 13

Please fill in: inhibition zone (IZ) reported for C[Si]1(C)OB(O)c2ccc(B(O)O)cc21 = 13

Please fill in: inhibition zone (IZ) reported for C[Si]1(C)OB(O)c2cc3c(c(F)c21)COB3O = 13

Please fill in: inhibition zone (IZ) reported for C[Si]1(C)OB(O)c2c(F)c3c(c(F)c21)B(O)OC3 = 13

Please fill in: inhibition zone (IZ) reported for OB(O)c1ccccc1 = 14

====

System: Bordetella bronchiseptica
Assay: Antibacterial activity against Bordetella bronchiseptica ATCC 4617 measured after 18 hrs by CLSI broth dilution method
Assay type: functional
Settings: ATCC 4617, 18 h
attribute-measured: MIC (µg/mL)
The answer is to be given in µg/mL; state only the numeric part.

Please fill in: MIC reported for C[Si]1(C)OB(O)c2cc(F)c(F)cc21 = 400

Please fill in: MIC reported for C[Si]1(C)OB(O)c2c(F)c(F)c(F)c(F)c21 = 100

Please fill in: MIC reported for C[Si]1(C)OB(O)c2cc3c(c(F)c21)COB3O = 200

Please fill in: MIC reported for C[Si]1(C)OB(O)c2ccc(Cl)c(Cl)c21 = 100

====

Test system: Stenotrophomonas maltophilia
Assay: Antibacterial activity against Stenotrophomonas maltophilia ATCC 13637 measured after 18 hrs by CLSI broth dilution method
Format: functional
Settings: ATCC 13637, 18 h
For each record, write down the corresponding MIC.
The answer is to be given in µg/mL; state only the numeric part.

Please fill in: MIC reported for C[Si]1(C)OB(O)c2c(C=O)cc(F)c(F)c21 = 400

Please fill in: MIC reported for C[Si]1(C)OB(O)c2cc3c(c(F)c21)COB3O = 200

Please fill in: MIC reported for C[Si]1(C)OB(O)c2ccc(Cl)cc21 = 100

Please fill in: MIC reported for C[Si]1(C)OB(O)c2ccc(F)c(F)c21 = 200

Please fill in: MIC reported for C[Si]1(C)OB(O)c2c(F)c(F)c(F)c(F)c21 = 400

Please fill in: MIC reported for C[Si]1(C)OB(O)c2ccc(C(F)(F)F)cc21 = 400

Please fill in: MIC reported for C[Si]1(C)OB(O)c2c(F)c3c(c(F)c21)B(O)OC3 = 50

Please fill in: MIC reported for C[Si]1(C)OB(O)c2cccc(F)c21 = 200

Please fill in: MIC reported for C[Si]1(C)OB(O)c2ccc(F)cc21 = 200

Please fill in: MIC reported for C[Si]1(C)OB(O)c2cc(F)c(CO)c(F)c21 = 200

Please fill in: MIC reported for O=C1CN(/N=C/c2ccc([N+](=O)[O-])o2)C(=O)N1 [NITROFURANTOIN] = 128

Please fill in: MIC reported for C[Si]1(C)OB(O)c2ccc(B(O)O)cc21 = 400

Please fill in: MIC reported for C[Si]1(C)OB(O)c2ccc(Cl)c(Cl)c21 = 200

Please fill in: MIC reported for C[Si]1(C)OB(O)c2cc(F)c(F)cc21 = 400

====

For each record, write down the corresponding fold change (FC).
System: Serratia marcescens
Assay: Antibacterial activity against Serratia marcescens ATCC 13880 assessed as fold reduction of MIC in presence of efflux pump inhibitor PAbetaN incubated for 18 hrs by broth microdilution method
Format: functional
Returns: the value as a bare number; no unit string appended.

Please fill in: fold change (FC) reported for C[Si]1(C)OB(O)c2cc(B(O)O)cc(F)c21 = 2

Please fill in: fold change (FC) reported for C[Si]1(C)OB(O)c2c(C=O)cc(F)c(F)c21 = 2

Please fill in: fold change (FC) reported for C[Si]1(C)OB(O)c2ccc(B(O)O)cc21 = 2

Please fill in: fold change (FC) reported for C[Si]1(C)OB(O)c2ccccc21 = 0

====

Test system: Klebsiella pneumoniae
Assay: Inhibition of beta lactamase KPC-3 in Klebsiella pneumoniae 83 assessed as potentiation of ceftazidime-induced antibacterial activity by measuring ceftazidime MIC at 16 mg/L incubated for 18 hrs by broth dilution method (reference value: >[…] mg/L)
For each record, write down the corresponding MIC.

// assay Klebsiella pneumoniae, entry C[Si]1(C)OB(O)c2ccc(F)c(F)c21 , MIC value = > 64 µg/mL

// assay Klebsiella pneumoniae, entry C[Si]1(C)OB(O)c2cc3c(c(F)c21)COB3O , MIC value = > 64 µg/mL

// assay Klebsiella pneumoniae, entry C[Si]1(C)OB(O)c2c(F)c(F)c(F)c(F)c21 , MIC value = > 64 µg/mL

====

Experiment: Dissociation constant, pKa1 of compound in 0.1 M NaOH by potentiometric analysis
Assay type: physicochemical
Classification field: enter Criterion met for pKa values not below 6, Criterion not met for values below it.

Q. Threshold query (pKa >= 6) on C[Si]1(C)OB(O)c2ccc(Cl)cc21
A. Criterion met

Q. Threshold query (pKa >= 6) on C[Si]1(C)OB(O)c2cc(F)c(C=O)c(F)c21
A. Criterion not met

Q. Threshold query (pKa >= 6) on C[Si]1(C)OB(O)c2ccc(C(F)(F)F)cc21
A. Criterion met

Q. Threshold query (pKa >= 6) on C[Si]1(C)OB(O)c2cc(F)c(CO)c(F)c21
A. Criterion not met

Q. Threshold query (pKa >= 6) on C[Si]1(C)OB(O)c2cc3c(c(F)c21)COB3O
A. Criterion met

Q. Threshold query (pKa >= 6) on C[Si]1(C)OB(O)c2ccc(F)cc21
A. Criterion met

Q. Threshold query (pKa >= 6) on C[Si]1(C)OB(O)c2cc(C=O)cc(F)c21
A. Criterion not met

Q. Threshold query (pKa >= 6) on C[Si]1(C)OB(O)c2ccccc21
A. Criterion met

Q. Threshold query (pKa >= 6) on C[Si]1(C)OB(O)c2c(F)c3c(c(F)c21)B(O)OC3
A. Criterion not met

Q. Threshold query (pKa >= 6) on C[Si]1(C)OB(O)c2cc(B(O)O)cc(F)c21
A. Criterion met

Q. Threshold query (pKa >= 6) on C[Si]1(C)OB(O)c2cccc(Br)c21
A. Criterion met

Q. Threshold query (pKa >= 6) on C[Si]1(C)OB(O)c2cccc(B(O)O)c21
A. Criterion met

Q. Threshold query (pKa >= 6) on C[Si]1(C)OB(O)c2ccc(C=O)c(F)c21
A. Criterion not met
